Numbers sourced from patent US8906904B2.

# assayNotes: Assessment of solubility (McIlvaine buffers, 24 h shake, UPLC-UV)
# Assay type: physicochemical
# conditionLabel: pH 6.8, aqueous buffer, kinetic from dmso stock
valueType: solubility at 24 h (µg/mL)

{"columns": ["compound", "readoutValue"],
 "data": [
  ["Cc1cccc(-c2cccc(-n3ncc(C(=O)O)c3OC(C)C)n2)c1OCc1ccc2c(c1)CCN([C@H]1CCOC1)C2", 75],
  ["COc1c(C(=O)O)cnn1-c1cccc(-c2cccc(C)c2OCc2ccc3c(c2)CCN(CC2CC2)C3)n1", 76],
  ["COc1c(C(=O)O)cnn1-c1cccc(-c2cccc(C)c2OCc2ccc3c(c2C)CCN(C[C@H]2COCCO2)C3)n1", 93],
  ["CCOc1c(C(=O)O)cnn1-c1cccc(-c2cccc(C)c2OCc2ccc3c(c2)CCN(C2COC2)C3)n1", 81],
  ["COCC(C)N1CCc2cc(COc3c(C)cccc3-c3cccc(-n4ncc(C(=O)O)c4OC)n3)cc(C)c2C1 (stereo not shown)", 98],
  ["COc1c(C(=O)O)cnn1-c1cccc(-c2cccc(C)c2OCc2cc(F)c3c(c2)CCN(C[C@H]2CCCCO2)C3)n1", 73],
  ["CCOc1c(C(=O)O)cnn1-c1cccc(-c2cccc(C)c2OCc2ccc3c(c2C)CCN(C2CCOCC2)C3)n1", 100]
]}

----------
# testedTarget: human soluble guanylate cyclase alpha 1 and beta 1 subunits (sGC) (Homo sapiens, UniProt Q02108+Q02153)
# Sequence (Q02108 whole entry): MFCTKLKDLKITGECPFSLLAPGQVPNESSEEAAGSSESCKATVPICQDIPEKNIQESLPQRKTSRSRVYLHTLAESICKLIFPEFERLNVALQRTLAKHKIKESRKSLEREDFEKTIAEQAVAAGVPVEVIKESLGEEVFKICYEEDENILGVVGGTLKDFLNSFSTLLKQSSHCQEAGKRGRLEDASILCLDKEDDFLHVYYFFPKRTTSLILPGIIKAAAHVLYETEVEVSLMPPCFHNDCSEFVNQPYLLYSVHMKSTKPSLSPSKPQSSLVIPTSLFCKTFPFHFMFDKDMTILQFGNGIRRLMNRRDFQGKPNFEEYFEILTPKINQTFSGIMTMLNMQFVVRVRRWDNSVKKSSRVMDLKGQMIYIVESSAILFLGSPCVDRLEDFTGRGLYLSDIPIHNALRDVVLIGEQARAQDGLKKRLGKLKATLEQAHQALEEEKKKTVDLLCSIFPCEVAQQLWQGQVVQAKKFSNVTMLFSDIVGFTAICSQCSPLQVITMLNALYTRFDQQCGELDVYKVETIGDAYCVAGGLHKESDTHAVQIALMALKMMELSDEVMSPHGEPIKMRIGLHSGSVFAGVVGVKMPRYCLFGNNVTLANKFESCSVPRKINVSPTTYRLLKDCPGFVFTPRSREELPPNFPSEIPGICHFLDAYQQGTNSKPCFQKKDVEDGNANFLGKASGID
# Sequence (Q02153 whole entry): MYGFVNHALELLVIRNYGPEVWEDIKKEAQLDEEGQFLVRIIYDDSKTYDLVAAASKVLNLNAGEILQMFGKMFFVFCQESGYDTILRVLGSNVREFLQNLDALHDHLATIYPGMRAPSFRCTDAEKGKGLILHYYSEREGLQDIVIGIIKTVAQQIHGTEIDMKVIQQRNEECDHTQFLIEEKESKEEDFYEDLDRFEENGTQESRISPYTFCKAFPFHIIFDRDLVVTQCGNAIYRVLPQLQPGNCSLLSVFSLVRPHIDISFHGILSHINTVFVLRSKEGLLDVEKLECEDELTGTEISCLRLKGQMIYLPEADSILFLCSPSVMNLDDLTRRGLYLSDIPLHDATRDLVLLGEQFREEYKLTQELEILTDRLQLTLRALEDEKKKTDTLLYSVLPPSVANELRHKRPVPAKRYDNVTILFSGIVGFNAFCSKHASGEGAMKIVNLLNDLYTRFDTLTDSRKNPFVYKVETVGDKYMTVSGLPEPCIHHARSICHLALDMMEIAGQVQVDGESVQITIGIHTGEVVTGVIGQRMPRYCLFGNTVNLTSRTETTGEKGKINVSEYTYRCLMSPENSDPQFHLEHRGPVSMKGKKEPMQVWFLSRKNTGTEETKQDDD
# assayNotes: sGC cellular activator assay (cGMP, HTRF)
# conditionLabel: CHO cells stably expressing human sGC alpha 1/beta 1, preincubated with 40 microM ODQ; cGMP readout; assay run with and without 50% human serum, Table 2 does not say which
valueType: EC50 (nM)

{"columns": ["compound", "readoutValue"],
 "data": [
  ["CCOc1c(C(=O)O)cnn1-c1cccc(-c2cccc(C)c2OCc2ccc3c(c2C)CCN(CC2CCOCC2)C3)n1", 50]
]}

(A) CCOc1c(C(=O)O)cnn1-c1cccc(-c2cccc(C)c2OCc2ccc3c(c2)CCCN(C2CCCOC2)C3)n1 (centres unmarked)
(B) CCOc1c(C(=O)O)cnn1-c1cccc(-c2cccc(C)c2OCc2ccc3c(c2)CCN(C2CCCOC2)C3)n1 (centres unmarked)
(C) COc1c(C(=O)O)cnn1-c1cccc(-c2cccc(C)c2OCc2ccc3c(c2F)CCN(C[C@@H]2COCCO2)C3)n1
(D) COc1c(C(=O)O)cnn1-c1cccc(-c2cccc(C)c2OCc2ccc3c(c2C)CCN([C@H]2CCOC2)C3)n1
(E) COc1c(C(=O)O)cnn1-c1cccc(-c2cc(F)cc(F)c2OCc2ccc3c(c2)CCN(C2CCOCC2)C3)n1
// query Sort ascending by EC50. // format: requested-order list of labels
// result C, D, B, E, A
(C: 4.6 nM, D: 17 nM, B: 27 nM, E: 110 nM, A: 280 nM)

(I) COc1c(C(=O)O)cnn1-c1cccc(-c2cccc(C)c2OCc2ccc3c(c2C)CCN(C2CCOCC2)C3=O)n1
(II) COc1c(C(=O)O)cnn1-c1cccc(-c2cccc(C)c2OCc2cc(F)c3c(c2)CCN([C@@H]2CCOC2)C3)n1
(III) CCOc1c(C(=O)O)cnn1-c1cccc(-c2cccc(C)c2OCc2cc(C)c3c(c2)CCN([C@@H]2CCCOC2)C3)n1
// query Sort ascending by EC50. // format: requested-order list of labels
// result III, II, I
(III: 4.7 nM, II: 13 nM, I: 30 nM)

----------
# assayNotes: Assessment of solubility (McIlvaine buffers, 24 h shake, UPLC-UV)
# Format: physicochemical
# conditionLabel: pH 2.2, aqueous buffer, kinetic from dmso stock
# Experimental: Solubility is measured by the following method. 100 uL, 10 mM DMSO stock solution of each compound is prepared in a 96 well plate format. The experiment is done in single determination at 3 pH values (2.2, 4.5 and 6.8). For each pH and one reference, 40 uL of each compound is needed. McIlvaine pH 2.2: To 2.076 g citric acid monohydrate and 0.043 g Na2HPO4×2H2O add 100 ml deionized water […] The samples are measured with UPLC-UV using the chromatographic method described below. […]
valueType: solubility at 24 h (µg/mL)

{"columns": ["compound", "readoutValue"],
 "data": [
  ["CCOc1c(C(=O)O)cnn1-c1cccc(-c2cccc(C)c2OCc2ccc3c(c2C)CCN(CC2(C)COC2)CC3)n1 [Compound 190]", 100],
  ["COc1c(C(=O)O)cnn1-c1cccc(-c2cccc(C)c2OCc2ccc3c(c2C(F)(F)F)CCN(C2CCOCC2)C3)n1 [Compound 166]", 110],
  ["COc1c(C(=O)O)cnn1-c1cccc(-c2cccc(C)c2OCc2ccc3c(c2)C(C)(C)CN(CC2COCCO2)C3)n1 (centres unmarked) [Compound 219]", 110],
  ["CCOc1c(C(=O)O)cnn1-c1cccc(-c2cccc(C)c2OCc2ccc3c(c2C)CCN(CC2CCCOC2)C3)n1 (centres unmarked) [Compound 146]", 100],
  ["CCOc1c(C(=O)O)cnn1-c1cccc(-c2cccc(C)c2OCc2ccc3c(c2)CCN(C(C)C)C3)n1 [Compound 32]", 91],
  ["COc1c(C(=O)O)cnn1-c1cccc(-c2cccc(C)c2OCc2cc(C)c3c(c2C)CN(C2CCOCC2)C3)n1 [Compound 145]", 110],
  ["COc1c(C(=O)O)cnn1-c1cccc(-c2cccc(C)c2OCc2ccc3c(c2C)CCN(C2CCOCC2)CC3)n1 [Compound 184]", 89],
  ["COc1c(C(=O)O)cnn1-c1cccc(-c2cccc(C)c2OCc2cc(C)c3c(c2C)CCN(C2COC2)C3)n1 [Compound 178]", 100],
  ["CCOc1c(C(=O)O)cnn1-c1cccc(-c2cccc(C)c2OCc2ccc3c(c2)CCN(C2CC(C)(C)OC(C)(C)C2)C3)n1 [Compound 67]", 90],
  ["CCOc1c(C(=O)O)cnn1-c1cccc(-c2cccc(C)c2OCc2ccc3c(c2)CCN(C2COC2)C3)n1 [Compound 6]", 90],
  ["COc1c(C(=O)O)cnn1-c1cccc(-c2cccc(C)c2OCc2ccc3c(c2C)CCN(C2CCCOC2)C3)n1 (centres unmarked) [Compound 238]", 77],
  ["COc1c(C(=O)O)cnn1-c1cccc(-c2cccc(C)c2OCc2ccc3c(c2C)CCN(CC(C)(C)C)C3)n1 [Compound 30]", 100],
  ["COc1c(C(=O)O)cnn1-c1cccc(-c2cccc(C)c2OCc2ccc3c(c2C)CCN([C@H]2CCOC2)C3)n1 [Compound 105]", 93],
  ["CCOc1c(C(=O)O)cnn1-c1cccc(-c2cccc(Cl)c2OCc2ccc3c(c2)CCN(C2CCC(F)(F)CC2)C3)n1 [Compound 57]", 95]
]}

----------
# assayNotes: Assessment of solubility (McIlvaine buffers, 24 h shake, UPLC-UV)
# Assay type: physicochemical
# conditionLabel: pH 6.8, aqueous buffer, kinetic from dmso stock
valueType: solubility at 24 h (µg/mL)

{"columns": ["compound", "unitString", "readoutValue"],
 "data": [
  ["COc1c(C(=O)O)cnn1-c1cccc(-c2cccc(C)c2OCc2ccc3c(c2C)CCN(C2CCOCC2)C3)n1", "µg/mL", 90],
  ["Cc1cccc(-c2cccc(-n3ncc(C(=O)O)c3OC(C)C)n2)c1OCc1ccc2c(c1)CCN(C1CCCOC1)C2 (centres unmarked)", "µg/mL", 78],
  ["COc1c(C(=O)O)cnn1-c1cccc(-c2cccc(C)c2OCc2ccc3c(c2)CCN(CC2CC(F)(F)C2)C3)n1", "µg/mL", 80],
  ["COc1c(C(=O)O)cnn1-c1cccc(-c2cccc(C)c2OCc2ccc3c(c2)C(C)(C)CN(C2CCOCC2)C3)n1", "µg/mL", 81],
  ["COc1c(C(=O)O)cnn1-c1cccc(-c2cccc(C)c2OCc2ccc3c(c2Cl)CCN(C2CCOC2)C3)n1 (centres unmarked)", "µg/mL", 73],
  ["CCOc1c(C(=O)O)cnn1-c1cccc(-c2cccc(C)c2OCc2ccc3c(c2)CCN(C2CCOCC2F)C3)n1 (centres unmarked)", "µg/mL", 73],
  ["CCOc1c(C(=O)O)cnn1-c1cccc(-c2cccc(C)c2OCc2cc(C)c3c(c2)CCN(C(C)COC)C3)n1 (centres unmarked)", "µg/mL", 87],
  ["COc1c(C(=O)O)cnn1-c1cccc(-c2cccc(C)c2OCc2ccc3c(c2)CCN(CCS(C)(=O)=O)C3)n1", "µg/mL", 95],
  ["CCOc1c(C(=O)O)cnn1-c1cccc(-c2cccc(C)c2OCc2ccc3c(c2)CCN(C2CCOC(CC)C2)C3)n1 (centres unmarked)", "µg/mL", 89],
  ["COc1c(C(=O)O)cnn1-c1cccc(-c2cccc(C)c2OCc2ccc3c(c2C)CCN(C2CCCOC2)C3)n1 (centres unmarked)", "µg/mL", 52],
  ["COc1c(C(=O)O)cnn1-c1cccc(-c2cccc(C)c2OCc2cc(C)c3c(c2C)CCN(C2COC2)C3)n1", "µg/mL", 86],
  ["CCOc1c(C(=O)O)cnn1-c1cccc(-c2cccc(C)c2OCc2cc(C)c3c(c2)CCN(C2CCOC2)C3)n1 (centres unmarked)", "µg/mL", 84],
  ["COc1c(C(=O)O)cnn1-c1cccc(-c2cccc(C)c2OCc2ccc3c(c2C)CCN(C2CCOCC2)C3=O)n1", "µg/mL", 83],
  ["COc1c(C(=O)O)cnn1-c1cccc(-c2cccc(C)c2OCc2cc(C)c3c(c2)CCN(CC2COCCO2)C3)n1 (centres unmarked)", "µg/mL", 67]
]}
